Values from paper PMC7819943

Target: OsWRKY34 (Oryza sativa, UniProt Q0JBA9 1-250)
Sequence (Q0JBA9 entry or part of it): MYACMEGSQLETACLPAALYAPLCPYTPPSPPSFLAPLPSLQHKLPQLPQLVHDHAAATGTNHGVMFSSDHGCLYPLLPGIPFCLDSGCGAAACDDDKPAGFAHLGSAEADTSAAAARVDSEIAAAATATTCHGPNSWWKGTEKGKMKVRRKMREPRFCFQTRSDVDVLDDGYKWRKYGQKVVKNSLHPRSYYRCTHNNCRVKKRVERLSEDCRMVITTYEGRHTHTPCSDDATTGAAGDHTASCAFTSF
Assay: protein-binding microarray (RPBM); PBS, 2% BSA, 51.3 ng/ul salmon testes DNA, 50 uM zinc acetate, 200 nM TF, 25 C, 1 h; high values mean tight binding
Details: protein: recombinant; tags: N-terminal polyhistidine and DsRed monomer fusion (pET32a); label: CyDye5-dUTP incorporated in the synthesized complementary strand; 3' TTTTT single-stranded linker to array surface; dsDNA, one strand shown
The full ranking holds about 68,000 sequences; the median of “fluorescence intensity (a.u.)” is about 9,100, and the highest 2% start at about 16,000. Only a selection was taken, and the highest values are over-represented in it overall.
For each record, write down the corresponding binding signal.

Recorded binding signal for "TCTGGGTATCCTCTGTTATGTCATCTTCACCTCCATTTGGCGGAGTCACCTAGTGCAG" with OsWRKY34 (Oryza sativa, UniProt Q0JBA9 1-250), please? 8690 fluorescence intensity (a.u.)

# value lookup — system OsWRKY34 (Oryza sativa, UniProt Q0JBA9 1-250), readout binding signal, item "ATTTAGGGAAATTATAACCATGCCACTCTGTCGTGTTTTCCGGAGTCACCTAGTGCAG" 9180 fluorescence intensity (a.u.)

# value lookup — system OsWRKY34 (Oryza sativa, UniProt Q0JBA9 1-250), readout binding signal, item "AACAGTGGTATCGTTGTGTAGGGGTGGGCTGGCAAAAAGACGGAGTCACCTAGTGCAG" 20000 fluorescence intensity (a.u.)

I'm curious: which binding signal was measured for "GGGGTTATGGTGGATTTGGTGCTTTGGGGCATTATGTTTACGGAGTCACCTAGTGCAG" tested on OsWRKY34 (Oryza sativa, UniProt Q0JBA9 1-250)? 13800 fluorescence intensity (a.u.)

Param readout = binding signal; param system = OsWRKY34 (Oryza sativa, UniProt Q0JBA9 1-250); param query = "CTGTTGTGTTGTGTTGTAATATGATTATGTGGGTGCTTATCGGAGTCACCTAGTGCAG" ; response: value 8390 fluorescence intensity (a.u.)

Field: binding signal (OsWRKY34 (Oryza sativa, UniProt Q0JBA9 1-250)). Entry: "TTTTGGGGTGGGTTTTGGTATCTGATGCTTACGGGCATCTCGGAGTCACCTAGTGCAG" 18100 fluorescence intensity (a.u.)

Lab note: need binding signal for "TCGTTGACTTTCTTGCCGTCTCGCCGCCGCCGCCGCCATGCGGAGTCACCTAGTGCAG" on OsWRKY34 (Oryza sativa, UniProt Q0JBA9 1-250), anyone have it? 23600 fluorescence intensity (a.u.)

binding signal of "ACTGTCCACTCACTTTTTCTTCACCCAGGAGACGAAATTTCGGAGTCACCTAGTGCAG" on OsWRKY34 (Oryza sativa, UniProt Q0JBA9 1-250)? 11200 fluorescence intensity (a.u.)

Lookup: binding signal / OsWRKY34 (Oryza sativa, UniProt Q0JBA9 1-250) / "GGTGACGGCTGGTGTGGGTGTAGGGTGGCCGCGCGGTACGCGGAGTCACCTAGTGCAG" 9460 fluorescence intensity (a.u.)

Give binding signal (OsWRKY34 (Oryza sativa, UniProt Q0JBA9 1-250)) of the following sequence: "GTGGCGACTGTTATCCCTAATTTTGCGGACTTGCTCTGATCGGAGTCACCTAGTGCAG" 9800 fluorescence intensity (a.u.)

Query for OsWRKY34 (Oryza sativa, UniProt Q0JBA9 1-250): what binding signal does the record show for "TGCTTGTGGTTTGTATGGAGTTTGGGTGAAGTGTCACGTACGGAGTCACCTAGTGCAG" ? 9660 fluorescence intensity (a.u.)

Param readout= binding signal; system= OsWRKY34 (Oryza sativa, UniProt Q0JBA9 1-250); entry= "GGTGACGGCGGCTGTCTTCTTCGTAGGGTGCGGGGTGGCTCGGAGTCACCTAGTGCAG" ; returns value. 8880 fluorescence intensity (a.u.)

// map "TGCGGCCCACCTTTGCTTCTTCGTTGACTTTCTTGCCGTCCGGAGTCACCTAGTGCAG" to recorded binding signal (system: OsWRKY34 (Oryza sativa, UniProt Q0JBA9 1-250)) 26900 fluorescence intensity (a.u.)

// fetch OsWRKY34 (Oryza sativa, UniProt Q0JBA9 1-250) binding signal for "GAGCTTGGGGTTGTGTATGGTGGTGGTGGTGTGGTAGCTACGGAGTCACCTAGTGCAG" 33200 fluorescence intensity (a.u.)

So what binding signal did "AATATTTCCCTTTCCAATGTTCAGTCAGCCCATCAGACCGCGGAGTCACCTAGTGCAG" get with OsWRKY34 (Oryza sativa, UniProt Q0JBA9 1-250)? 8110 fluorescence intensity (a.u.)

Field: binding signal (OsWRKY34 (Oryza sativa, UniProt Q0JBA9 1-250)). Entry: "GGCGCCGGCGCTAGCGCCCACGTCGGGGTTGGGGTTGGGGCGGAGTCACCTAGTGCAG" 16600 fluorescence intensity (a.u.)

Notebook entry, OsWRKY34 (Oryza sativa, UniProt Q0JBA9 1-250) assay: binding signal of "TGATGTCTTATCTCGGGTCTCATCTTTTCGCTTATGCTTACGGAGTCACCTAGTGCAG" = ? 8990 fluorescence intensity (a.u.)

Query binding signal on OsWRKY34 (Oryza sativa, UniProt Q0JBA9 1-250) for "CGTTATTCCGCTGTTGTTTTTTTTTTCTTTTGTAAGTATGCGGAGTCACCTAGTGCAG" 17500 fluorescence intensity (a.u.)

Lab request: please report binding signal under test system OsWRKY34 (Oryza sativa, UniProt Q0JBA9 1-250) for "GCCGTCTTTGCTTGATAGTCTTCGCCATGGGGACTTTGTCCGGAGTCACCTAGTGCAG" 8210 fluorescence intensity (a.u.)

---

Target: OsWRKY34 (Oryza sativa, UniProt Q0JBA9 1-250)
Assay: protein-binding microarray (RPBM); PBS, 2% BSA, 51.3 ng/ul salmon testes DNA, 50 uM zinc acetate, 200 nM TF, 25 C, 1 h; high values mean tight binding
Conditions: protein: recombinant; tags: N-terminal polyhistidine and DsRed monomer fusion (pET32a); label: CyDye5-dUTP incorporated in the synthesized complementary strand; 3' TTTTT single-stranded linker to array surface; dsDNA, one strand shown
The full ranking holds about 68,000 sequences; the median of “fluorescence intensity (a.u.)” is about 9,100, and the highest 2% start at about 16,000. Only a selection was taken, and the highest values are over-represented in it overall.
endpoint label: binding signal

// binding signal lookup, key: "AATCACCATCATCGCTGTTTGGGAGGGTCTGCCTGGCTTACGGAGTCACCTAGTGCAG" 13100 fluorescence intensity (a.u.)

What value of measured binding signal is listed for "GCGTCGCCTGCCGCCTCCGCTTCCGCTCCACTCCGCTTCGCGGAGTCACCTAGTGCAG" ? 12000 fluorescence intensity (a.u.)

Value lookup for binding signal; key = "GGATATCCGGTTTTGTGGTTGGGTGACGATTTTGTAATTCCGGAGTCACCTAGTGCAG" 9010 fluorescence intensity (a.u.)

So what's the measured binding signal for this one? "TATCTTGCCTAGCATATTGTCCGTGCGTTATTGCGATTTTCGGAGTCACCTAGTGCAG" 10500 fluorescence intensity (a.u.)

Dear colleague, I am looking for the recorded binding signal of the following sequence: "TGCTAAAAAGTCAACGGTGTCAAACATTTCGAAACGGAGGCGGAGTCACCTAGTGCAG" 10900 fluorescence intensity (a.u.)

What measured binding signal goes with "TTGGGTTTAGGGCGGTAATTCGGTTGACCGCGATAGTTCACGGAGTCACCTAGTGCAG" ? 12400 fluorescence intensity (a.u.)

Form field: reported binding signal of "GCGGCGCGGCGGGGAGGAGGGAGGGGTGGCGTTGAGGTGGCGGAGTCACCTAGTGCAG" 19300 fluorescence intensity (a.u.)

Could you share which binding signal value was measured for "GGGTGAAAATGTCTGGTTTTGTGGTTTAAGGGTGTAATTCCGGAGTCACCTAGTGCAG" ? 8700 fluorescence intensity (a.u.)

What value of binding signal has been recorded for this entry: "GGATACTGCACAGCCCTTGATCACAATACAGTGCATTTCTCGGAGTCACCTAGTGCAG" 9450 fluorescence intensity (a.u.)

What measured binding signal goes with "GGTGTGATATATCTGGTTTTGTGGTTCGGTGGGGTAATTCCGGAGTCACCTAGTGCAG" ? 22000 fluorescence intensity (a.u.)

Reported binding signal for "GTCTCATGTCACACTCACGTAGCTATATTTTTTATATTATCGGAGTCACCTAGTGCAG" : what is it? 9120 fluorescence intensity (a.u.)

# input sequence: "ATCTTGGGAAGGCCGTTACTCACTCTAGACTTTACTCCTCCGGAGTCACCTAGTGCAG" ; wanted: its binding signal 8270 fluorescence intensity (a.u.)

Look up binding signal for this sequence: "GGCAACCACGTAATTCCCTCCCTTTTCAGTTACTCATCAACGGAGTCACCTAGTGCAG" 9620 fluorescence intensity (a.u.)

Given "TCTTGTTCATTTCTCTCTTGCTCCGGCTCGCCTCGCATCGCGGAGTCACCTAGTGCAG" , state its recorded binding signal. 8300 fluorescence intensity (a.u.)

I have this sequence here, "ATTGAAACATGATCCGAGTCATAGCCTGACTGGAATTCTTCGGAGTCACCTAGTGCAG" , and I need its recorded binding signal. 9120 fluorescence intensity (a.u.)

What measured binding signal goes with "CTCTCTCTCTCTCTCTCTCTCTCTCTCGATGCCGACGCTTCGGAGTCACCTAGTGCAG" ? 11000 fluorescence intensity (a.u.)

# get_value(readout='binding signal', item= "GACCTTTTTTTCTTTTCTTCTTTGTTCTTTGTTGTTCTCTCGGAGTCACCTAGTGCAG" ) 10700 fluorescence intensity (a.u.)

Name the recorded binding signal for "CTGCTCTAACTGAAGTGCCAGGTGACTTGCTTGGTTGGTTCGGAGTCACCTAGTGCAG" . 18300 fluorescence intensity (a.u.)

Which value of binding signal has been reported for "CCCGCGTCTCGGCCCTCTCCGTCCTCGTTGCTTCCGACGCCGGAGTCACCTAGTGCAG" in the records? 8780 fluorescence intensity (a.u.)
